Reference source: patent EP2027772A1

# protocol: physchem
# measurement.parameters: n-octanol/water

{"columns": ["compound", "logP"],
 "data": [
  ["CCC(CO)(CO)COCC(CC)(CO)CO [3,3,7,7 Tetrahydroxymethyl 5 oxanonan]", -0.3],
  ["CCCCCC(O)C(O)CO (stereo not drawn)", 0.15],
  ["CCCC(O)CO (stereo not drawn)", -0.3],
  ["COCC(O)COC", -0.5],
  ["CCCCCCCCC(O)CO (stereo not drawn)", 2.4],
  ["CC(O)CC(C)(C)O (stereo not drawn)", 0],
  ["CCCCCC(O)CO (stereo not drawn)", 1.5],
  ["CCCCCCCC(O)CO (stereo not drawn)", 2.5],
  ["CC(C)(O)CCO", -0.3],
  ["CCCCC(O)CO (stereo not drawn)", 1],
  ["CCCCCCC(O)CO (stereo not drawn)", 1.3],
  ["CC(CO)CO", -0.7]
]}
